I'd appreciate it if you could supply Ki values for the items below.
# target.of.assay: human neprilysin (EC 3.4.24.11; NEP) (Homo sapiens (Human), UniProt P08473)
# Sequence (P08473 52-750): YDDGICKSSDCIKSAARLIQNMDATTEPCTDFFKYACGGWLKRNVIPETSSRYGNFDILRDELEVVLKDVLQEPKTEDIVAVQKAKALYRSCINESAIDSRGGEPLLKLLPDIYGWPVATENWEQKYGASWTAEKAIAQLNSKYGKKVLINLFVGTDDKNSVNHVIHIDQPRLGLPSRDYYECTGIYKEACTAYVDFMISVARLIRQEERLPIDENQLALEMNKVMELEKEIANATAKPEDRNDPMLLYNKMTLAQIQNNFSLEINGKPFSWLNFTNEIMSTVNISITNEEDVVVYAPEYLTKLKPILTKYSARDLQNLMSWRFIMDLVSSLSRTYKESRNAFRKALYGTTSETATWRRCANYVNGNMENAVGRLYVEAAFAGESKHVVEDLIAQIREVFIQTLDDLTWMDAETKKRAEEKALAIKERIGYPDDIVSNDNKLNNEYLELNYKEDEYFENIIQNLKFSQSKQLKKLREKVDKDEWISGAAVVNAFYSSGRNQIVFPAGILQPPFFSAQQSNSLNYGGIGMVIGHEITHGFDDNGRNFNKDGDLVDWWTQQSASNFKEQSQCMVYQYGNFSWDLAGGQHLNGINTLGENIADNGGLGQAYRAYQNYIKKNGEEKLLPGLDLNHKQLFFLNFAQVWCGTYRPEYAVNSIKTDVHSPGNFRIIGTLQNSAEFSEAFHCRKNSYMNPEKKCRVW
# assay.notes: In vitro enzyme inhibition assay at human NEP (fluorogenic peptide substrate)
# experimental.parameters: pKi values at human NEP, recombinant human NEP

compound	Ki
COc1ccccc1-c1cc(C(=O)N[C@H](Cc2ccc(-c3ccccc3)cc2)C[C@@H](O)C(=O)O)no1	1.26 to 10 nM
O=C(N[C@H](Cc1ccc(-c2ccccc2)cc1)C[C@@H](O)C(=O)O)c1cc2n(n1)C[C@H](O)COc1ccccc1-2	1.26 to 10 nM
O=C(N[C@H](Cc1ccc(-c2ccccc2)cc1)CC(O)C(=O)O)c1cc(-c2ccco2)[nH]n1 (some centres unmarked)	1.26 to 10 nM
O=C(N[C@H](Cc1ccc(-c2ccccc2)cc1)CC(O)C(=O)O)c1nc[nH]n1 (some centres unmarked)	12.6 to 100 nM
O=C(O)Cc1cc(C(=O)N[C@H](Cc2ccc(-c3ccccc3)cc2)C[C@@H](O)C(=O)O)n[nH]1	1.26 to 10 nM

For every listed record, write down its Ki.
1. CC(=O)Nc1ncc(C(=O)N[C@H](Cc2ccc(-c3ccccc3)cc2)C[C@@H](O)C(=O)O)s1
2. CCCCC(=O)Nc1cc(C(=O)N[C@H](Cc2ccc(-c3ccccc3)cc2)CC(O)C(=O)O)[nH]n1 (some centres unmarked)
3. O=C(N[C@H](Cc1ccc(-c2cccc(Cl)c2)cc1)C[C@@H](O)C(=O)O)c1ccc(=O)n(-c2ccccc2)n1
4. COc1ccc(-c2cc(C(=O)N[C@H](Cc3ccc(-c4ccccc4)cc3)C[C@@H](O)C(=O)O)no2)cc1
5. O=C(N[C@H](Cc1ccc(-c2ccccc2)cc1)CC(O)C(=O)O)c1cc(C(=O)O)n(Cc2cc(F)cc(Cl)c2)n1 (some centres unmarked)
6. NC(=O)[C@H](O)C[C@@H](Cc1ccc(-c2ccccc2)cc1)NC(=O)c1cnc(O)nc1
7. Cc1n[nH]c(C(=O)N[C@H](Cc2ccc(-c3ccccc3)cc2)CC(O)C(=O)O)n1 (some centres unmarked)

12.6 to 100 nM
12.6 to 100 nM
1.26 to 10 nM
1.26 to 10 nM
1.26 to 10 nM
12.6 to 100 nM
12.6 to 100 nM

For every listed record, write down its Ki.
1. C[C@@H](O)c1cc(C(=O)N[C@H](Cc2ccc(-c3ccccc3)cc2)C[C@@H](O)C(=O)O)[nH]n1
2. O=C(Nc1cc(C(=O)N[C@H](Cc2ccc(-c3ccccc3)cc2)CC(O)C(=O)O)[nH]n1)c1ccccn1 (some centres unmarked)

1: 1.26 to 10 nM; 2: 1.26 to 10 nM
